Entry source: paper PMC7144554

Target: K103N RT RNase H function (Human immunodeficiency virus type 1 group M subtype B, UniProt P04585, K690N)
Construct: Amino acid substitutions were introduced into the p66 HIV-1 RT subunit coded in a p6HRT-prot plasmid
Experiment: RNase H activity of mutated RT K103N
Parameter Measured: IC50 (µM)
All answers are understood in µM, so give the number only.

# get_value(readout='IC50', item= "COc1cc(OC)cc(OC(=O)c2ccc(C(F)(F)F)nc2Nc2cc(Cl)ccc2C)c1" ) 53.9

---

Assay: Cell viability in CEM cells (MTT)
Type: cell-based
Settings: human, MTT, 5 days
Parameter Measured: CC50 at 5 days (µM)
Write the answer as a number in µM, unit excluded.

For orientation, consider the following solved cases.
- Compound: "Cc1ccc(Cl)cc1Nc1nc(C(F)(F)F)ccc1C(=O)Nc1cccnc1 [Compound 27]"
  CC50 at 5 days [µM]: 16.2
- Compound: "COc1cc(CNC(=O)c2ccc(C(F)(F)F)nc2Nc2cc(Cl)ccc2C)ccc1O [Compound 47]"
  CC50 at 5 days [µM]: 17.4
- Compound: "Cc1ccc(Cl)cc1Nc1nc(C(F)(F)F)ccc1C(=O)NCc1ccccc1Cl [Compound 38]"
  CC50 at 5 days [µM]: 12.5
- Compound: "COc1cc(NC(=O)c2ccc(C(F)(F)F)nc2Nc2cc(Cl)ccc2C)cc(OC)c1 [Compound 34]"
  CC50 at 5 days [µM]: 10.4
- Compound: "Cc1ccc(CNC(=O)c2ccc(C(F)(F)F)nc2Nc2cc(Cl)ccc2C)cc1 [Compound 44]"
  CC50 at 5 days [µM]: 3.5

Could you tell me which CC50 at 5 days is on file for Cc1ccc(Cl)cc1Nc1nc(C(F)(F)F)ccc1C(=O)NCc1ccc(F)cc1 [Compound 41] ? 11.6

Query COc1cc(NC(=O)c2ccc(C(F)(F)F)nc2Nc2cc(Cl)ccc2C)cc(OC)c1OC [Compound 36] next 10.2

Field entry: Cc1ccc(Cl)cc1Nc1nc(C(F)(F)F)ccc1C(=O)NO [Compound 25] 35

What about COc1ccc(CNC(=O)c2ccc(C(F)(F)F)nc2Nc2cc(Cl)ccc2C)cc1 [Compound 43] ? 20

---

Molecular target: V108A RT RNase H function (Human immunodeficiency virus type 1 group M subtype B, UniProt P04585, V695A)
Construct: Amino acid substitutions were introduced into the p66 HIV-1 RT subunit coded in a p6HRT-prot plasmid; made in house; host or cells: Escherichia coli strain M15
Assay: RNase H activity of mutated RT V108A
Assay type: biochemical, HIV-1
Parameter Measured: IC50

# input compound: "COc1cc(OC)cc(OC(=O)c2ccc(C(F)(F)F)nc2Nc2cc(Cl)ccc2C)c1" ; wanted: its IC50 > 100 µM

---

Items are presented alongside their recorded CC50.
Experiment: Cytotoxicity in TZMbl cells
Type: cell-based
Settings: human
Supply the numeric figure in µM, leaving out any unit text.

- Smiles Repr: "Cc1cccc(NC(=O)c2ccc(C(F)(F)F)nc2Nc2cc(Cl)ccc2C)c1"
  Endpoint Unit: "µM"
  CC50: 3.9
- Smiles Repr: "Cc1ccc(Cl)cc1Nc1nc(C(F)(F)F)ccc1C(=O)Nc1ccc(Cl)cc1Cl"
  Endpoint Unit: "µM"
  CC50: 4.7
- Smiles Repr: "CSc1ccc(OC(=O)c2ccc(C(F)(F)F)nc2Nc2cc(Cl)ccc2C)cc1"
  Endpoint Unit: "µM"
  CC50: 50

Note: attention shifts to another entry.
Need CC50 of "Cc1ccc(Cl)cc1Nc1nc(C(F)(F)F)ccc1C(=O)Oc1ccccc1O" , thanks. 12.2

---

Target: HIV-1 RT-associated RNase H activity (wt RT) (Human immunodeficiency virus type 1 group M subtype B, UniProt P04585)
Construct: RT is a heterodimeric (p66/p51) multifunctional enzyme
Experiment: HIV-1 DNA polymerase-independent RNase H activity, wt RT
Conditions: RNase H IC50, wt RT
Parameter Measured: pIC50
Give only the number. pIC50 is defined as minus log10 of concentration in molar units.

Reference set (5 entries):
- Smiles Repr: "Cc1ccc(Cl)cc1Nc1nc(C(F)(F)F)ccc1C(=O)NCc1ccc(Cl)cc1Cl"
  pIC50: 4.71
- Smiles Repr: "Cc1ccc(Cl)cc1Nc1nc(C(F)(F)F)ccc1C(=O)NCc1ccccc1Cl"
  pIC50: 4.71
- Smiles Repr: "Cc1ccc(Cl)cc1Nc1nc(C(F)(F)F)ccc1C(=O)Oc1c(Cl)cc(Cl)cc1Cl"
  pIC50: 4.50
- Smiles Repr: "COc1ccccc1CNC(=O)c1ccc(C(F)(F)F)nc1Nc1cc(Cl)ccc1C"
  pIC50: 4.73
- Smiles Repr: "CSc1ccc(OC(=O)c2ccc(C(F)(F)F)nc2Nc2cc(Cl)ccc2C)cc1"
  pIC50: 5.02

Sample "Cc1ccc(CNC(=O)c2ccc(C(F)(F)F)nc2Nc2cc(Cl)ccc2C)cc1" — what was its pIC50? 4.67

Please answer likewise for "Cc1ccc(Cl)cc1Nc1nc(C(F)(F)F)ccc1C(=O)Nc1cccc(Cl)c1" 5.40

And "COc1ccc(CNC(=O)c2ccc(C(F)(F)F)nc2Nc2cc(Cl)ccc2C)cc1" ? 4.52

---

Biological target: V108A RT RNase H function (Human immunodeficiency virus type 1 group M subtype B, UniProt P04585, V695A)
Construct: Amino acid substitutions were introduced into the p66 HIV-1 RT subunit coded in a p6HRT-prot plasmid; made in house; host or cells: Escherichia coli strain M15
Assay: RNase H activity of mutated RT V108A
Type: biochemical, HIV-1
Details: read-out: RNase H IC50; V108A RT
Parameter Measured: IC50 (µM)
Respond with the bare value in µM.

For the compound shown here, CC(C)c1ccc(O)c(=O)c(O)c1 [BTP, beta-Thujaplicinol, reference compound] , give the reported IC50. 0.34

---

Assay: Cytotoxicity in TZMbl cells
Type: cell-based
Conditions: human
Quick rule for you: CC50 under 5 µM gets y, anything else gets n.

- Compound: "COc1cc(NC(=O)c2ccc(C(F)(F)F)nc2Nc2cc(Cl)ccc2C)cc(OC)c1OC [Compound 36]"
  Category Label: "y"
- Compound: "Cc1ccc(Cl)cc1Nc1nc(C(F)(F)F)ccc1C(=O)Oc1cccc(O)c1 [Compound 17]"
  Category Label: "n"
- Compound: "COc1ccc(CNC(=O)c2ccc(C(F)(F)F)nc2Nc2cc(Cl)ccc2C)cc1 [Compound 43]"
  Category Label: "n"

Is CC50 of Cc1ccc(Cl)cc1Nc1nc(C(F)(F)F)ccc1C(=O)NCc1ccc(C(F)(F)F)cc1 [Compound 42] strictly below 5 µM? y

Cc1ccc(Cl)cc1Nc1nc(C(F)(F)F)ccc1C(=O)NCc1ccccc1Cl [Compound 38] ? n

Record: Cc1ccc(Cl)cc1Nc1nc(C(F)(F)F)ccc1C(=O)NO [Compound 25] n

Next: COc1cc(CNC(=O)c2ccc(C(F)(F)F)nc2Nc2cc(Cl)ccc2C)ccc1O [Compound 47] n

---

Target: Q475A RT RNase H function (Human immunodeficiency virus type 1 group M subtype B, UniProt P04585, Q1062A)
Construct: Amino acid substitutions were introduced into the p66 HIV-1 RT subunit coded in a p6HRT-prot plasmid; made in house; host or cells: Escherichia coli strain M15
Experiment: RNase H activity of mutated RT Q475A
Assay type: biochemical, HIV-1
Text: Amino acid substitutions were introduced into the p66 HIV-1 RT subunit coded in a p6HRT-prot plasmid using the QuikChange protocol (Agilent Technologies Inc., Santa Clara, CA). […]
Parameter Measured: IC50 (nM)
State just the number; it will be interpreted in nM.

Please report the recorded IC50 for CC(C)c1ccc(O)c(=O)c(O)c1 [BTP, beta-Thujaplicinol, reference compound] . 190

---

Biological target: HIV-1 RT-associated RNase H activity (wt RT) (Human immunodeficiency virus type 1 group M subtype B)
Construct: RT is a heterodimeric (p66/p51) multifunctional enzyme
Assay: HIV-1 DNA polymerase-independent RNase H activity, wt RT
Conditions: RNase H IC50, wt RT
Below: a set of entries, each annotated with reported IC50.
Your answer should be a plain number; it is taken to be in µM.

Please give the measured IC50 for this molecule: "Cc1ccc(Cl)cc1Nc1nc(C(F)(F)F)ccc1C(=O)NCc1ccc(Cl)c(Cl)c1" 25.6

Entry "CCOC(=O)c1ccc(C(F)(F)F)nc1Nc1cc(Cl)ccc1C" please 24

Also need "COc1ccc(OC(=O)c2ccc(C(F)(F)F)nc2Nc2cc(Cl)ccc2C)cc1" , thanks. 11.6

---

Parameter melting point: see the listing below.

- Smiles Repr: "Cc1ccc(Cl)cc1Nc1nc(C(F)(F)F)ccc1C(=O)Oc1ccc(O)cc1"
  melting point: "184 to 186 °C"
- Smiles Repr: "Cc1ccc(Cl)cc1Nc1nc(C(F)(F)F)ccc1C(=O)NCc1ccc(Cl)c(Cl)c1"
  melting point: "179 to 180 °C"
- Smiles Repr: "CSc1ccc(OC(=O)c2ccc(C(F)(F)F)nc2Nc2cc(Cl)ccc2C)cc1"
  melting point: "125 to 127 °C"
- Smiles Repr: "COc1ccccc1CNC(=O)c1ccc(C(F)(F)F)nc1Nc1cc(Cl)ccc1C"
  melting point: "148 to 150 °C"
- Smiles Repr: "Cc1ccc(Cl)cc1Nc1nc(C(F)(F)F)ccc1C(=O)NCc1ccc(C(F)(F)F)cc1"
  melting point: "170 to 171 °C"
- Smiles Repr: "COc1cc(OC(=O)c2ccc(C(F)(F)F)nc2Nc2cc(Cl)ccc2C)cc(OC)c1OC"
  melting point: "138 to 140 °C"
- Smiles Repr: "Cc1ccc(Cl)cc1Nc1nc(C(F)(F)F)ccc1C(=O)N1CCN(c2ccccc2)CC1"
  melting point: "118 to 120 °C"
- Smiles Repr: "COc1cc(CNC(=O)c2ccc(C(F)(F)F)nc2Nc2cc(Cl)ccc2C)ccc1O"
  melting point: "142 to 143 °C"

Fill in the blank: the reported melting point of "Cc1ccc(Cl)cc1Nc1nc(C(F)(F)F)ccc1C(=O)NCc1ccc(Cl)cc1Cl" is ____. 153 to 155 °C

Try this compound next: "Cc1ccc(Cl)cc1Nc1nc(C(F)(F)F)ccc1C(=O)NO" 154 to 155 °C
